test: Antiproliferative activity against human Caki2 cells after 72 hrs by MTT assay; type: functional, cell-based; conditions: CAKI-2, 72 h

>  <smiles structure>
CNC(=O)c1cc(Oc2ccc(NC(=O)Nc3ccc(Cl)c(C(F)(F)F)c3)cc2)ccn1

>  <comparison operator>
>

>  <EC50 (nM)>
1000

$$$$
>  <smiles structure>
Cc1nc(Nc2ncc(C(=O)Nc3c(C)cccc3Cl)s2)cc(N2CCN(CCO)CC2)n1

>  <comparison operator>
=

>  <EC50 (nM)>
55

$$$$
>  <smiles structure>
COC(=O)c1cc2cc(NCc3cc(NC(=O)c4cc(-n5cnc(C)c5)cc(C(F)(F)F)c4)ccc3C)cnc2[nH]1

>  <comparison operator>
=

>  <EC50 (nM)>
22

$$$$
>  <smiles structure>
C#Cc1cccc(Nc2ncnc3cc(OCCOC)c(OCCOC)cc23)c1

>  <comparison operator>
>

>  <EC50 (nM)>
1000

$$$$
>  <smiles structure>
CCN(CC)CCNC(=O)c1c(C)[nH]c(/C=C2\C(=O)Nc3ccc(F)cc32)c1C

>  <comparison operator>
>

>  <EC50 (nM)>
1000

$$$$

###

assay: Cmax in Swiss mouse plasma at 2 mg/kg, iv by LC/MS/MS analysis; assay type: ADME, organism-based; set-up: dose 2 mg/kg, route intravenous

>  <smiles structure>
COC(=O)c1cc2cc(NCc3cc(NC(=O)c4cc(-n5cnc(C)c5)cc(C(F)(F)F)c4)ccc3C)cnc2[nH]1

>  <Cmax / ng/mL>
853

$$$$

###

molecular target: Tyrosine-protein kinase ABL1 (Homo sapiens, UniProt P00519, G250E); experiment: Inhibition of His-tagged full length human recombinant ABL G250E mutant expressed in baculovirus using Fluorescein-Poly GT as substrate

>  <smiles structure>
COC(=O)c1cc2cc(NCc3cc(NC(=O)c4cc(-n5cnc(C)c5)cc(C(F)(F)F)c4)ccc3C)cnc2[nH]1

>  <IC50>
46 nM

$$$$

###

target: UniProt P21802; test: Inhibition of His-tagged human recombinant FGFR2 (403 to 822 residues) expressed in baculovirus using Fluorescein-Poly GT as substrate at 100 nM
Sequence (P21802 22-821 limits assumed): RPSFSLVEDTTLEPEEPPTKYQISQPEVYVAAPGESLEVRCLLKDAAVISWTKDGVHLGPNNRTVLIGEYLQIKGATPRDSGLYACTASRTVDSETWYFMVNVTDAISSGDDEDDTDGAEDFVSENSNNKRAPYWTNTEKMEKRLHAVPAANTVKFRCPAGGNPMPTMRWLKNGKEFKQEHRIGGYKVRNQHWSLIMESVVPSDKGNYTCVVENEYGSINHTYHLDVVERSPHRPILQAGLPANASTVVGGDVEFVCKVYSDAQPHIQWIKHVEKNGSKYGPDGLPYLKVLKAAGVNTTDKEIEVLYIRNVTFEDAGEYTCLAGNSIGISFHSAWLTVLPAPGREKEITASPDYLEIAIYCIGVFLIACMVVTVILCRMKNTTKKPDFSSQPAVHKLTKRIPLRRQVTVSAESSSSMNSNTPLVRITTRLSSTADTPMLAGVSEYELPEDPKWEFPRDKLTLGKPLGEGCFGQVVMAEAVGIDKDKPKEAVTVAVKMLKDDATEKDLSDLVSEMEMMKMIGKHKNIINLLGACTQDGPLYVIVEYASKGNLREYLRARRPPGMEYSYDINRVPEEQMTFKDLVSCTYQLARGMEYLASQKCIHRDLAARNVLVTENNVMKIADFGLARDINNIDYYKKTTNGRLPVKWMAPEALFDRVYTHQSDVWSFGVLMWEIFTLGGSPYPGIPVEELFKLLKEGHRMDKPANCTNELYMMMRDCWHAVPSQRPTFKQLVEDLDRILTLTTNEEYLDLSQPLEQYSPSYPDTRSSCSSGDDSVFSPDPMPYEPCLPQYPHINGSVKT
// reported inhibition per item

>  <compound>
COC(=O)c1cc2cc(NCc3cc(NC(=O)c4cccc(C(F)(F)F)c4)ccc3C)cnc2[nH]1

>  <readout units>
%

>  <inhibition>
7

$$$$
>  <compound>
COC(=O)c1cc2cc(/C=C/c3cc(NC(=O)c4ccc(CN5CCC(N(C)C)C5)c(C(F)(F)F)c4)ccc3C)cnc2[nH]1 (centres undefined)

>  <readout units>
%

>  <inhibition>
38

$$$$
>  <compound>
COC(=O)c1cc2cc(NCc3cc(NC(=O)c4cc(-n5cnc(C)c5)cc(C(F)(F)F)c4)ccc3C)cnc2[nH]1

>  <readout units>
%

>  <inhibition>
52

$$$$
>  <compound>
COC(=O)c1cc2cc(NC(=O)c3cc(NC(=O)c4ccc(CN5CCC(N(C)C)C5)c(C(F)(F)F)c4)ccc3C)cnc2[nH]1 (centres undefined)

>  <readout units>
%

>  <inhibition>
94

$$$$

###

molecular target: Platelet-derived growth factor receptor alpha (Homo sapiens); assay: Inhibition of full length GST-tagged human recombinant PDGFRalpha expressed in baculovirus using Fluorescein-Poly GT as substrate at 100 nM
Sequence (P16234 whole entry): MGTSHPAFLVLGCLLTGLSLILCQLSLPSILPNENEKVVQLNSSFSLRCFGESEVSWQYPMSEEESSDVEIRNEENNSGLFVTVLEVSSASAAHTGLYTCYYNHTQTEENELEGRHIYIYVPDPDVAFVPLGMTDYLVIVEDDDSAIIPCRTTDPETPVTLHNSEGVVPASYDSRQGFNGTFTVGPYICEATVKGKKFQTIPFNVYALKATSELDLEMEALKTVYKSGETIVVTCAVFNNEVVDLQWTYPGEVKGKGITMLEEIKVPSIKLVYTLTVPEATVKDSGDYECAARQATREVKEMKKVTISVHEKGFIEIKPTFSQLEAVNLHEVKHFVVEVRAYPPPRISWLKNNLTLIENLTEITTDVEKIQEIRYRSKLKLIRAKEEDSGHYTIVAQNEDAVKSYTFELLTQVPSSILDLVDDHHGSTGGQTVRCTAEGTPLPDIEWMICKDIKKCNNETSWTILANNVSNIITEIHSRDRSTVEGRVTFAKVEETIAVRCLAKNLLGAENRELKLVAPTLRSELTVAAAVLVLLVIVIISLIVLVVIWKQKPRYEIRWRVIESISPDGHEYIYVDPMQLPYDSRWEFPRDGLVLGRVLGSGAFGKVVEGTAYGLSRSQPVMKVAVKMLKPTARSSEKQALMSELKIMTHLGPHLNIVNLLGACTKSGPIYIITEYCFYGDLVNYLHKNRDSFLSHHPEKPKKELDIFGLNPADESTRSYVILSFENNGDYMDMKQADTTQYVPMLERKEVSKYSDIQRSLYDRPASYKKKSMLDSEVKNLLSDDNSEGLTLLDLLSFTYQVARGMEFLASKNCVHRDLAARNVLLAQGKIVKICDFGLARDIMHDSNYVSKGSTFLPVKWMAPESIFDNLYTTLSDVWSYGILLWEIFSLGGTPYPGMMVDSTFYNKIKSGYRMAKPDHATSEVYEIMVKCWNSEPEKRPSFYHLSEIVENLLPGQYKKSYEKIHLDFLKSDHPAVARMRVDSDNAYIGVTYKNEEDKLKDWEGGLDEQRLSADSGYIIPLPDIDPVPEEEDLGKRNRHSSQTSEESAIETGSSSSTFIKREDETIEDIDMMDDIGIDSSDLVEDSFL
Mark False for inhibition values under 70%, and True for everything at or above.

>  <compound>
CC(=O)c1cc2cc(NCc3cc(NC(=O)c4cc(-n5cnc(C)c5)cc(C(F)(F)F)c4)ccc3C)cnc2[nH]1

>  <tested system>
Platelet-derived growth factor receptor alpha (Homo sapiens)

>  <group>
False

$$$$
>  <compound>
COC(=O)c1cc2cc(NCc3cc(NC(=O)c4ccc(-c5csc(C)n5)cc4)ccc3C)cnc2[nH]1

>  <tested system>
Platelet-derived growth factor receptor alpha (Homo sapiens)

>  <group>
True

$$$$
>  <compound>
COC(=O)c1cc2cc(NCc3cc(NC(=O)Cc4ccccc4Br)ccc3C)cnc2[nH]1

>  <tested system>
Platelet-derived growth factor receptor alpha (Homo sapiens)

>  <group>
True

$$$$
>  <compound>
COC(=O)c1cc2cc(COc3cc(NC(=O)c4ccc(CN5CCC(N(C)C)C5)c(C(F)(F)F)c4)ccc3C)cnc2[nH]1 (stereo not drawn)

>  <tested system>
Platelet-derived growth factor receptor alpha (Homo sapiens)

>  <group>
True

$$$$
>  <compound>
COC(=O)c1cc2cc(COc3cc(NC(=O)c4ccc(CN5CCN(C)CC5)cc4)ccc3C)cnc2[nH]1

>  <tested system>
Platelet-derived growth factor receptor alpha (Homo sapiens)

>  <group>
True

$$$$
>  <compound>
COC(=O)c1cc2cc(NCc3cc(NC(=O)c4ccc(C)c(C(F)(F)F)c4)ccc3C)cnc2[nH]1

>  <tested system>
Platelet-derived growth factor receptor alpha (Homo sapiens)

>  <group>
False

$$$$
>  <compound>
COC(=O)c1cc2cc(NCc3cc(NC(=O)c4ccc(CN5CCC(N(C)C)C5)c(C(F)(F)F)c4)ccc3C)cnc2[nH]1 (stereo not drawn)

>  <tested system>
Platelet-derived growth factor receptor alpha (Homo sapiens)

>  <group>
True

$$$$

###

assay: Antiangiogenic activity in HRMEC after 72 hrs by MTT assay; format: functional, Homo sapiens
// reported EC50 per item
observation type: EC50 (nM)

>  <compound>
COC(=O)c1cc2cc(NCc3cc(NC(=O)c4cc(-n5cnc(C)c5)cc(C(F)(F)F)c4)ccc3C)cnc2[nH]1

>  <readout units>
nM

>  <comparison operator>
=

>  <data value>
62

$$$$
>  <compound>
CNC(=O)c1cc2cc(NCc3cc(NC(=O)c4ccc(CN5CCC(N(C)C)C5)c(C(F)(F)F)c4)ccc3C)cnc2[nH]1 (stereo unspecified)

>  <readout units>
nM

>  <comparison operator>
=

>  <data value>
81

$$$$
>  <compound>
C#Cc1cccc(Nc2ncnc3cc(OCCOC)c(OCCOC)cc23)c1 [ERLOTINIB]

>  <readout units>
nM

>  <comparison operator>
>

>  <data value>
1000

$$$$
>  <compound>
CNC(=O)c1cc(Oc2ccc(NC(=O)Nc3ccc(Cl)c(C(F)(F)F)c3)cc2)ccn1 [SORAFENIB]

>  <readout units>
nM

>  <comparison operator>
>

>  <data value>
1000

$$$$
>  <compound>
CC(=O)c1cc2cc(NCc3cc(NC(=O)c4ccc(CN5CCC(N(C)C)C5)c(C(F)(F)F)c4)ccc3C)cnc2[nH]1 (stereo unspecified)

>  <readout units>
nM

>  <comparison operator>
=

>  <data value>
179

$$$$
>  <compound>
CC(=O)c1cc2cc(CCc3cc(NC(=O)c4ccc(CN5CCC(N(C)C)C5)c(C(F)(F)F)c4)ccc3C)cnc2[nH]1 (stereo unspecified)

>  <readout units>
nM

>  <comparison operator>
=

>  <data value>
304

$$$$

###

test system: HT-29; assay: Antiproliferative activity against human HT-29 cells after 72 hrs by MTT assay; type: functional, cell-based; conditions: HT-29, 72 h
pEC50: −log10 of the molar value.
observation type: pEC50

>  <compound>
CNC(=O)c1cc(Oc2ccc(NC(=O)Nc3ccc(Cl)c(C(F)(F)F)c3)c(F)c2)ccn1

>  <tested system>
HT-29

>  <comparison operator>
<

>  <data value>
6.00

$$$$
>  <compound>
COC(=O)c1cc2cc(NCc3cc(NC(=O)c4cc(-n5cnc(C)c5)cc(C(F)(F)F)c4)ccc3C)cnc2[nH]1

>  <tested system>
HT-29

>  <comparison operator>
=

>  <data value>
7.43

$$$$
>  <compound>
C#Cc1cccc(Nc2ncnc3cc(OCCOC)c(OCCOC)cc23)c1

>  <tested system>
HT-29

>  <comparison operator>
<

>  <data value>
6.00

$$$$
>  <compound>
CNC(=O)c1cc(Oc2ccc(NC(=O)Nc3ccc(Cl)c(C(F)(F)F)c3)cc2)ccn1

>  <tested system>
HT-29

>  <comparison operator>
<

>  <data value>
6.00

$$$$
>  <compound>
CNC(=O)c1cc2cc(NCc3cc(NC(=O)c4ccc(CN5CCC(N(C)C)C5)c(C(F)(F)F)c4)ccc3C)cnc2[nH]1 (stereo not given)

>  <tested system>
HT-29

>  <comparison operator>
=

>  <data value>
6.64

$$$$

###

// reported EC50 per item
system: NCI-H1975; assay: Antiproliferative activity against human NCI-H1975 cells harboring EGFR L858R/T790M double mutant after 72 hrs by MTT assay; format: functional, cell-based; details: NCI-H1975, 72 h

>  <smiles structure>
C#Cc1cccc(Nc2ncnc3cc(OCCOC)c(OCCOC)cc23)c1

>  <EC50>
> 1 µM

$$$$
>  <smiles structure>
CCN(CC)CCNC(=O)c1c(C)[nH]c(/C=C2\C(=O)Nc3ccc(F)cc32)c1C

>  <EC50>
> 1 µM

$$$$
>  <smiles structure>
CNC(=O)c1cc(Oc2ccc(NC(=O)Nc3ccc(Cl)c(C(F)(F)F)c3)cc2)ccn1

>  <EC50>
> 1 µM

$$$$
